- method: chemical genetic growth profiling, strain panel (AID 1159580);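 further: tested at 20 µM; growth read once vehicle control cultures reached saturation at 30 °C; 1 = growth at the plate median or of vehicle wells; lower values mean less growth of the strain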
- stated.conditions: S. cerevisiae deletion strains, growth OD, locus YMR205C, strain PFK2, hits give low values
Screen size: about 5,500 compounds; about 2,000 (36%) were called active. Not shown: some 18% with an inconclusive outcome. The list shows a part of the results.
value.kind: normalized growth
Lab note: record just the number, no unit beside it.

Known results for compounds:
- CC(=O)OC/C=C(\C)CC/C=C(\C)CC/C=C(\C)CC/C=C(\C)CC/C=C(\C)CC/C=C(\C)CC/C=C(\C)CC/C=C(\C)CCC=C(C)C: 0.958
- COP(=S)(OC)Oc1ccc([N+](=O)[O-])cc1: 0.97
- CC(=O)O[C@H]1C[C@@H](OC(C)=O)C(C)(C)C2C[C@@H](OC(C)=O)[C@]3(C)C(CC[C@@]4(C)[C@H](c5ccoc5)OC(=O)[C@H]5O[C@]543)[C@]21C (stereo not given in full): 0.988

Using the record for `CCCn1c(=O)c2[nH]c(C3CCCC3)nc2n(CCC)c1=O` , report its normalized growth.
0.967

Form field: reported normalized growth of CC(=O)O[C@@H]1CC2C(C)(C)[C@@H](O)CC[C@]2(C)C2CC[C@@]3(C)[C@H](c4ccoc4)OC(=O)[C@H]4O[C@]43[C@@]21C (stereo not given in full)
0.993

For the compound shown here, CC(=O)O[C@H]1CC[C@@]2(C)C(C[C@@H](OC(C)=O)[C@]3(C)C2CC[C@@]2(C)[C@H](c4ccoc4)OC(=O)[C@H]4O[C@]423)C1(C)C (stereo not given in full) , give the reported normalized growth.
0.968

Reported normalized growth, compound CN[C@@H]1C(OC2[C@H](O[C@H]3[C@H](O)[C@@H](O)[C@H](N=C(N)N)[C@@H](O)[C@@H]3N=C(N)N)OC(C)[C@]2(O)CO)OC(CO)C(O)C1O (stereo not given in full) : ____
0.995

----------
- method: chemical genetic growth profiling, strain panel (AID 1159580);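 further: tested at 20 µM; growth read once vehicle control cultures reached saturation at 30 °C; 1 = growth at the plate median or of vehicle wells; lower values mean less growth of the strain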
- stated.conditions: S. cerevisiae deletion strains, growth OD, locus YAL013W, strain DEP1
About 2,000 (36%) of roughly 5,500 compounds were called active. Another 18% or so got no clear call; they are omitted. Rule as the data show it: active = normalized growth mostly below about 0.91 (no sharp cut-off); inconclusive = no clear call, values can overlap the other calls; inactive = mostly above about 0.92. The list shows a part of the results.
Parameter call: string, one of Y (active), N (inactive)

What did this assay record as the result for `CC(=O)O[C@]1(C)CC[C@@]23CC1C(C)(C)[C@@H]2CC[C@H]3C` ?
N

What outcome does the record of this test show for COC1=CC(=O)OC(CCc2ccc(OC)c(OC)c2)C1 (stereo not drawn) ?
N

Assay result, entry `NCCCCC(=O)O` — outcome?
N

Hi, sorry to bother you, what did the test record for `CCCn1c(=O)c2[nH]c(C3CCCC3)nc2n(CCC)c1=O` ?
N

Answer briefly: the call reported for `O=c1oc2ccccc2cc1[N+](=O)[O-]` in this assay.
Y

Assay outcome for `CCOC(=O)C(=CNNS(=O)(=O)c1cc(C(F)(F)F)cc(C(F)(F)F)c1)C(=O)OCC` : what was it?
N

Could you kindly confirm the outcome this assay logged for `Cc1onc(-c2ccccc2)c1-c1ccc(S(N)(=O)=O)cc1` ?
N

Please state the recorded outcome for this compound: `COc1ccc2c(c1)c(CC(=O)O)c(C)n2Cc1ccc(Cl)cc1`
N

Hi team, can someone confirm the assay call for `FC(F)(F)c1cccc(N2CCNCC2)c1` ?
N

I'd appreciate the recorded outcome for `NC(N)=NC(N)=Nc1ccccc1C(F)(F)F` from this test.
N

Outcome? COc1ccc2c(c1)OCC(Cc1ccc(OC)c(OC(C)=O)c1)C2=O (stereo not drawn)
N

What classification did `CC(C)N(CCC(=O)c1ccc2ccccc2c1)Cc1ccccc1` end up with in this test?
Y

Check the results log: what was the call for `O=C1CCc2cccc3cccc1c23` ?
N
